System: DAT (Homo sapiens, UniProt Q01959)
Sequence (Q01959 whole entry): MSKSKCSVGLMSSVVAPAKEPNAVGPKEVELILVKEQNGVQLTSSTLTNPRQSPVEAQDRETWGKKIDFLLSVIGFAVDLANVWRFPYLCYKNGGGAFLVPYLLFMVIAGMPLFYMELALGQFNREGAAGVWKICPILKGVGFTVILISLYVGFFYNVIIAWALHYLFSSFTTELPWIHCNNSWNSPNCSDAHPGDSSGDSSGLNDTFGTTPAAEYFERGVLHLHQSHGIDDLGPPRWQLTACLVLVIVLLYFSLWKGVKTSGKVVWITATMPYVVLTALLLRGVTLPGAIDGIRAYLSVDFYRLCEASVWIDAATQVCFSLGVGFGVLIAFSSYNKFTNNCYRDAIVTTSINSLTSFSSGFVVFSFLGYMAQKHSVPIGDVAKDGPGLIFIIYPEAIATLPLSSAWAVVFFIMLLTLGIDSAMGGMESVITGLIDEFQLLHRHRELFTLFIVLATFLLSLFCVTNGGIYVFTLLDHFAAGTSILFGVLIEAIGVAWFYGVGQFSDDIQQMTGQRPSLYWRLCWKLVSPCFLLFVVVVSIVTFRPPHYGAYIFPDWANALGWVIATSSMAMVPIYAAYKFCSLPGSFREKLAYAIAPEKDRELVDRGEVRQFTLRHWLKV
Quantity Measured: Ki (µM)
# number only, unit µM dropped from output

Lab note: measured Ki of OCC12CC1C(n1cnc3c(NC(C4CC4)C4CC4)nc(Cl)nc31)C(O)C2O (stereo not shown) was 4.75

----------
System: 5HT2C (Homo sapiens)
Sequence (P28335 33-458): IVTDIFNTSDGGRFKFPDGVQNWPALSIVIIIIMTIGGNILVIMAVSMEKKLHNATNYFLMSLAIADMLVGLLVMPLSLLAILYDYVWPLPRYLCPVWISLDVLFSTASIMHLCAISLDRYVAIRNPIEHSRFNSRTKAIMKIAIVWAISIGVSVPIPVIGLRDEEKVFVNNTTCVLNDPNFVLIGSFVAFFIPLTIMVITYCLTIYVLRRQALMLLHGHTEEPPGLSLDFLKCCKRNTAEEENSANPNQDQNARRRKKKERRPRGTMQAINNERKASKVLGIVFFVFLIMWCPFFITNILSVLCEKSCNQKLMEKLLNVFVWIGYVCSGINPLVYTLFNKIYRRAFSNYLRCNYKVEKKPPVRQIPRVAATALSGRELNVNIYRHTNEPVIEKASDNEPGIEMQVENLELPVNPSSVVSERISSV
Quantity Measured: pKi
# log scale: pKi equals minus log10 of the concentration in mol/L

Entry OCC12CC1C(n1cnc3c(NC(C4CC4)C4CC4)nc(Cl)nc31)C(O)C2O (stereo not shown) , 5HT2C (Homo sapiens) data, pKi value: 5.73
